This listing pairs compounds with measured TGI.
tested on: UACC-62 melanoma; assay: NCI tumour cell line growth inhibition, 48 h

Compound	System	TGI
CC(=O)OCC1OC(SC2=N/C(=C\c3ccc(Br)s3)C(=O)N2CN2CCOCC2)C(OC(C)=O)C(OC(C)=O)C1OC(C)=O (centres undefined)	UACC-62 melanoma	32.1 µM
C[C@H](NC(=O)C(Cc1ccccc1)(Cc1ccc(O)cn1)NC(=O)c1ccccc1)c1ccccc1 (some centres undefined)	UACC-62 melanoma	26.5 µM
C[n+]1cccc2c(=O)c3ccccc3oc21	UACC-62 melanoma	> 100 µM
O=[N+]([O-])c1ccc2sc(C=Nc3cnccn3)cc2c1	UACC-62 melanoma	53.1 µM
CC1CCCC2(CC[N+](C)(CCC[N+](C)(C)C)CC2)C1 (centres undefined)	UACC-62 melanoma	> 100 µM
CSC1=C(N)C(=O)c2[nH]cc(CO)c2C1=N	UACC-62 melanoma	0.314 µM
OCC(O)C(O)C(O)C(O)c1nc2ccc(Cl)cc2[nH]1 (centres undefined)	UACC-62 melanoma	> 100 µM
OC1(c2ccccc2)CCN(Cc2c[nH]c3ccccc23)CC1	UACC-62 melanoma	> 100 µM
CC(=O)N1CC(C)(C)c2c(C)c(O)c(C)c(C)c21	UACC-62 melanoma	> 100 µM
ClCCCc1ccccc1C1=NCCc2ccccc21	UACC-62 melanoma	> 100 µM
N#C/C(=C\c1ccsc1)c1nc2ccccc2o1	UACC-62 melanoma	> 100 µM
COc1cc(OC)c(C/C=C/c2ccccc2)cc1O	UACC-62 melanoma	29 µM
COc1cc2c(cc1OC)[C@H](C)N1CCc3cc(OC)c(OC)cc3[C@@H]1C2	UACC-62 melanoma	> 100 µM
CC1(C)CC(O)C(C)(C)[C@@H](O)C1 (some centres undefined)	UACC-62 melanoma	> 100 µM
COc1ccc2c(c1)NC1=C(C(=O)OC1)C2c1cc(OC)c2c(c1)OCO2 (centres undefined)	UACC-62 melanoma	> 100 µM
c1cncc(C2N3CCCCC3[C@@H]3c4[nH]c5ccccc5c4CCN23)c1 (some centres undefined)	UACC-62 melanoma	> 100 µM
CCOc1ccc(N/C(=C(/C(Cl)=C(/Cl)N(CC)CC)[N+](=O)[O-])n2nnc3ccccc32)cc1	UACC-62 melanoma	28.8 µM
NC(=O)c1cccc([N+](=O)[O-])c1	UACC-62 melanoma	> 100 µM
CO/N=C1\CC(NC(=O)CNC(=O)OC(C)(C)C)c2ccsc21 (centres undefined)	UACC-62 melanoma	> 100 µM
